Where do the numbers come from? From patent US20240254129A1.

# Tested system: wildtype Kras / hSOS1 (Homo sapiens)
# Construct: made in house; host or cells: E. coli BL21 (DE3)
# Assay method text: HTRF assay, wildtype Kras / SOS1 interaction
# Type: binding
# Experimental setup: compound nos. 401-703; read-out: IC50 against wildtype Kras
Reported IC50 values for a set of molecules

As a guide, the following entries are already answered.
Molecule	IC50
NC(=O)C1COCCN(c2nc(OC[C@@]34CCCN3C[C@H](F)C4)nc3c(F)c(-c4ccc(F)c5sc(N)nc45)c(Cl)cc23)C1 (stereo partly drawn) [Compound 507]	> 0.5 µM
Cc1cc(N)nc(-c2ccc3c(N4CC5CCC(C4)N5)nc(OC[C@@]45CCCN4C[C@H](F)C5)nc3c2F)c1C1CC1 [Compound 648]	> 0.5 µM

**Query** What value of measured IC50 is listed for Nc1c(-c2c(Cl)cc3c(N4CC5CCC(C4)N5)nc(OCC45CCCN4CCC5)nc3c2F)cccc1C1CC1 [Compound 695] ?
**Result** > 0.5 µM

**Query** Next entry: N#Cc1c(N)sc2c(F)ccc(-c3c(Cl)cc4c(N5CC6CCC(C5)O6)nc(OC[C@@]56CCCN5C[C@H](F)C6)nc4c3F)c12 [Compound 583]
**Result** > 0.5 µM

**Query** Next entry: CC(C)CN1[C@@H]2CC[C@H]1CN(c1nc(OCC34CCCN3CCC4)nc3c(F)c(-c4ccc(F)c5sc(N)nc45)c(Cl)cc13)C2 [Compound 617]
**Result** > 0.5 µM

**Query** Next entry: Nc1cc(-c2ccc3c(N4CC5CCC(C4)N5)nc(OCC45CCCN4CCC5)nc3c2F)c2c(Cl)cccc2n1 [Compound 498]
**Result** < 0.5 µM

----------
# Tested system: GST-tagged K-Ras mutant / His-tagged hSOS1 (Homo sapiens, UniProt P01116)
# Sequence (P01116 whole entry G12D, form open): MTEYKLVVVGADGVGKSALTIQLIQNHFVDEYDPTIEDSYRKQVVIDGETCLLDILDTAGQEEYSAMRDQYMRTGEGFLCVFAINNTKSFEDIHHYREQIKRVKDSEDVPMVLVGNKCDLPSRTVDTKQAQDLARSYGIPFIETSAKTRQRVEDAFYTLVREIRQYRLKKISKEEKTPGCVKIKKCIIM
# Assay method text: HTRF assay, K-Ras mutant / SOS1 interaction
# Format: binding
# Experimental setup: compound nos. 401-703; read-out: IC50 against mutant Kras
Recorded endpoint: IC50

As a guide, the following entries are already answered.
>>> print(df.to_string())
                                chem_smiles  recorded_endpoint    result
0  CC(C)CN1CCCN(c2nc(OCC34CCCN3CCC4)nc3c(F)c(-c4ccc(F)c5sc(N)nc45)c(Cl)cc23)CC1               IC50  < 500 nM
1  N#Cc1c(N)sc2c(F)ccc(-c3c(Cl)cc4c(N5CCCOCC5)nc(OC[C@@]56CCCN5C[C@H](F)C6)nc4c3F)c12               IC50  < 500 nM
2  Cc1ccc2[nH]nc(C#N)c2c1-c1c(Cl)cc2c(N3CC4CCC(C3)N4)nc(OC[C@@]34CCCN3C[C@H](F)C4)nc2c1F               IC50  < 500 nM

**Query** What value of measured IC50 is listed for Cc1ccc(C(N)=O)cc1-c1c(Cl)cc2c(N3CC4CCC(C3)N4)nc(OCC34CCCN3CCC4)nc2c1F ?
**Result** > 500 nM

**Query** Next entry: N#C/C=C/c1cc2c(N3CC4CCC(C3)N4)nc(OC[C@@]34CCCN3C[C@H](F)C4)nc2c(F)c1-c1ccc(F)c2sc(N)nc12
**Result** > 500 nM

**Query** Next entry: Oc1cc(-c2c(Cl)cc3c(N4CC5CCC(C4)N5)nc(OCC45CCCN4CCC5)nc3c2F)cc(C(F)(F)F)c1
**Result** > 500 nM

----------
# Tested system: GST-tagged K-Ras mutant / His-tagged hSOS1 (Homo sapiens, UniProt P01116)
# Assay method text: HTRF assay, K-Ras mutant / SOS1 interaction
# Type: binding
# Experimental setup: compound nos. 401-703; read-out: IC50 against mutant Kras
Recorded endpoint: IC50

                                   molecule    result
0  Nc1nc2c(-c3c(Cl)cc4c(N5CC6CCC(C5)N6)nc(OC[C@@]56CCCN5C[C@H](F)C6)nc4c3F)cc(Cl)cc2s1  < 0.5 µM
1  Cc1ccc2cnn(C)c2c1-c1ccc2c(N3CC4CCC(C3)N4)nc(OC[C@@]34CCCN3C[C@H](F)C4)nc2c1F  > 0.5 µM

**Query** What value of measured IC50 is listed for Cc1ccc2oc(N)nc2c1-c1c(Cl)cc2c(N3CCNCC(F)(F)C3)nc(OC[C@@H]3CCCN3C)nc2c1F ?
**Result** < 0.5 µM

**Query** Next entry: CN1CCC[C@H]1COc1nc(N2CCCC(F)C(F)(F)C2)c2cc(Cl)c(-c3cccc4sc(N)nc34)c(F)c2n1 (some centres unmarked)
**Result** < 0.5 µM

**Query** Next entry: CN1CCC[C@H]1COc1nc(N2CCCC(NS(=O)(=O)C3CC3)CC2)c2cc(Cl)c(-c3cccc4sc(N)nc34)c(F)c2n1 (some centres unmarked)
**Result** < 0.5 µM

**Query** Next entry: Nc1nc2c(-c3c(Cl)cc4c(N5CC6CCC(C5)N6)nc(OCC56CCCN5CCC6)nc4c3F)c(F)ccc2s1
**Result** < 0.5 µM

**Query** Next entry: Nc1nc2c(C3CCc4c(nc(OC[C@@]56CCCN5C[C@H](F)C6)nc4N4CCNCC(F)(F)C4)C3)cccc2s1 (some centres unmarked)
**Result** > 0.5 µM

**Query** Next entry: CN(C)CC1(COc2nc(N3CC4CCC(C3)N4)c3ccc(-c4cccc5cccc(Cl)c45)c(F)c3n2)CC1
**Result** > 0.5 µM

----------
# Tested system: GST-tagged K-Ras mutant / His-tagged hSOS1 (Homo sapiens, UniProt P01116)
# Assay method text: HTRF assay, K-Ras mutant / SOS1 interaction
# Assay type: binding
# Experimental setup: compound nos. 102-196, general methodology of example 5; read-out: IC50 against mutant Kras
pIC50: −log10 of the molar value.
Reported pIC50 values for a set of compounds

>>> print(df.to_string())
                                   compound                             tested_system  recorded_endpoint  result
0  CN1CCC[C@H]1COc1nc(N2CC3CCNC3C2)c2cc(Cl)c(-c3cccc4sc(N)nc34)c(F)c2n1 (stereo partly shown)  GST-tagged K-Ras mutant / His-tagged hSOS1 (Homo sapiens, UniProt P01116)              pIC50  < 6.30

**Query** What value of measured pIC50 is listed for Cc1cc(N)nc(-c2c(Cl)cc3c(N4CCNCC(F)(F)C4)nc(OC[C@@H]4CCCN4C)nc3c2F)c1 ?
**Result** < 6.30

**Query** Next entry: CN1CCC[C@H]1COc1nc(N2CCNCC(F)(F)C2)c2cc(Cl)c(-c3ccc(F)c4sc(N)nc34)c(F)c2n1
**Result** > 6.30

**Query** Next entry: CN1CCC[C@H]1COc1nc(N2CCSCC(F)(F)C2)c2cc(Cl)c(-c3cccc4sc(N)nc34)c(F)c2n1
**Result** > 6.30

**Query** Next entry: CN1CCC[C@H]1COc1nc(N2CCNCC(F)(F)C2)c2cc(C#N)c(-c3cccc4sc(N)nc34)c(F)c2n1
**Result** < 6.30

**Query** Next entry: Nc1nc2c(-c3c(Cl)cc4c(N5CCNCC(F)(F)C5)nc(OC[C@@]56CCCN5C[C@H](F)C6)nc4c3F)cccc2o1
**Result** > 6.30

**Query** Next entry: Nc1nc2c(-c3c(Cl)cc4c(N5CCCOCC5)nc(OCC56CCCN5CCC6)nc4c3F)ccc(F)c2s1
**Result** > 6.30

----------
# Tested system: wildtype Kras / hSOS1 (Homo sapiens, UniProt P01116)
# Construct: made in house; host or cells: E. coli BL21 (DE3)
# Sequence (P01116 1-188 isoform P01116-2): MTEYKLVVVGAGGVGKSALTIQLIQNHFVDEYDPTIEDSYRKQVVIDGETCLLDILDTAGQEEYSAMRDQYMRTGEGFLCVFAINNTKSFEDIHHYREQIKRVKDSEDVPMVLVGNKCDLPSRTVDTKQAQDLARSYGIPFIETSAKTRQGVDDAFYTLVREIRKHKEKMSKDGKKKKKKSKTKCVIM
# Assay method text: HTRF assay, wildtype Kras / SOS1 interaction
# Format: binding
# Experimental setup: compound nos. 301-306; read-out: IC50 against wildtype Kras
# Text: This assay can be also used to assess a selective inhibition of a mutant Ras protein relative to a wildtype, or relative to a different mutant Ras protein. For example, the equilibrium interaction of wildtype Kras or K-Ras mutant (e.g., wildtype or a mutant thereof including those mentioned in Example 6) with SOS1 (e.g., hSOS1) can be assessed as a proxy or an indication for a subject compound's ability to bind and inhibit Ras protein. […]
Recorded endpoint: IC50

As a guide, the following entries are already answered.
In [3]: df
Out[3]:
                                   molecule                             tested_system     result
0  Nc1nc2c(-c3c(Cl)cc4c(N5[C@@H]6CCC[C@H]5C[C@H](O)C6)nc(OC[C@@]56CCCN5C[C@H](F)C6)nc4c3F)ccc(F)c2s1 [Compound 305]  wildtype Kras / hSOS1 (Homo sapiens, UniProt P01116)  < 1500 nM
1  Nc1nc2c(-c3c(Cl)cc4c(N5[C@@H]6CC[C@H]5CNC6)nc(OC[C@@]56CCCN5C[C@H](F)C6)nc4c3F)ccc(F)c2s1 [Compound 301]  wildtype Kras / hSOS1 (Homo sapiens, UniProt P01116)  < 1500 nM

**Query** Query the reported IC50 for wildtype Kras / hSOS1 (Homo sapiens, UniProt P01116); item: CN1CCC[C@H]1COc1nc(N2[C@@H]3CC[C@H]2CNC3)c2cc(Cl)c(-c3cccc4sc(N)nc34)c(F)c2n1 [Compound 306]
**Result** < 1500 nM
